experiment: qHTS RealTime-Glo MT Cell Viability Assay in HEK293 cells - 24 hour (AID 1224886); conditions: RealTime-Glo luminescence; series mostly up to 76.8 µM; note: nearly all actives have a fitted effect of over 50% in size
Inconclusive results are not listed. The source made the active and inactive calls. Calls come from the whole dose curve; as a rule, active = well fitted cell-killing curve with a large enough effect in the repeat runs; inconclusive = weak or mixed curves, or effect the other way; inactive = flat fitted curve, though single readings scatter.
Your reply should match one of these outcome classes. active, inactive

The examples below pair each entry with its known result.
[[record]]
compound = "CC(=O)/C=C/C1C(C)=CCCC1(C)C (centres undefined)"
class_assignment = "inactive"

[[record]]
compound = "O=C(O)/C=C/c1cnc[nH]1"
class_assignment = "inactive"

[[record]]
compound = "CNCC[C@@H](Oc1ccccc1C)c1ccccc1"
class_assignment = "inactive"

[[record]]
compound = "Nc1nc(N)c2nc(CNc3ccc(C(=O)N[C@@H](CCC(=O)O)C(=O)O)cc3)cnc2n1"
class_assignment = "inactive"

[[record]]
compound = "CC1CCc2cc(F)cc3c(=O)c(C(=O)O)cn1c23 (centres undefined)"
class_assignment = "inactive"

[[record]]
compound = "CC1=CC(=O)/C(=C(/C)O)C(=O)O1"
class_assignment = "inactive"


Write down the call the test reported for this compound. Item: CCCCCOC(=O)c1ccc(O)cc1 active

Write down the call the test reported for this compound. Item: O=C(c1ccccc1)c1ccc2n1CCC2C(=O)O (centres undefined) inactive

Write down the call the test reported for this compound. Item: N#CCCNCCC#N inactive

Write down the call the test reported for this compound. Item: Cc1ccccc1N=Nc1ccc(N=Nc2c(O)ccc3ccccc23)c(C)c1 inactive

Write down the call the test reported for this compound. Item: CC[C@H](C)[C@H](N)C(=O)O inactive

Write down the call the test reported for this compound. Item: CCCCCCCCCC(=O)OCC inactive

Write down the call the test reported for this compound. Item: NC1CCN(c2nc3c(cc2F)c(=O)c(C(=O)O)cn3-c2ccc(F)cc2F)C1 (centres undefined) inactive

Write down the call the test reported for this compound. Item: CC(C)CC=O inactive

====

experiment: qHTS assay to identify small molecule agonists of the progesterone receptor (PR) signaling pathway - cell viability counter screen (AID 1346799); conditions: PR-UAS-bla HEK293T viability, CellTiter-Glo luminescence, 16 h; series mostly up to 92.4 µM; note: % is set by controls: 0 for no effect and ±100 for the full control effect; nearly all actives have a fitted effect of over 45% in size
Inconclusive results are not listed. Active and inactive are the calls of the source. Calls follow the shape of the full dose curve.
Your reply should match one of these outcome classes. active, inactive

Write down the call the test reported for this compound. Item: O=C(NS(=O)(=O)/C=C/c1cccs1)c1ccc(F)cc1Br inactive

Write down the call the test reported for this compound. Item: O=C(NN1CCCC1)NS(=O)(=O)c1ccc(Cl)cc1 inactive

Write down the call the test reported for this compound. Item: S=C(S)NCCNC(=S)S inactive

Write down the call the test reported for this compound. Item: N[C@H]1C(O)O[C@H](CO)[C@H](O)[C@@H]1O (some centres undefined) inactive

Write down the call the test reported for this compound. Item: CN(c1nccc(=O)[nH]1)C1CCN(c2nc3ccccc3n2Cc2ccc(F)cc2)CC1 inactive

Write down the call the test reported for this compound. Item: CCCCCC(CO)CCC (centres undefined) inactive

====

molecular target: Nuclear receptor subfamily 1 group I member 2 (Rattus norvegicus) (UniProt Q9R1A7); assay: Rat pregnane X receptor (rPXR) activation by small molecules, qHTS assay (AID 1346983); conditions: rPXR luciferase reporter cells, One-Glo luminescence, 24 h; active compounds read high; note: % is set by controls: 0 for no effect and ±100 for the full control effect; nearly all actives have a fitted effect of over 20% in size
Sequence (Q9R1A7 whole entry, looked up): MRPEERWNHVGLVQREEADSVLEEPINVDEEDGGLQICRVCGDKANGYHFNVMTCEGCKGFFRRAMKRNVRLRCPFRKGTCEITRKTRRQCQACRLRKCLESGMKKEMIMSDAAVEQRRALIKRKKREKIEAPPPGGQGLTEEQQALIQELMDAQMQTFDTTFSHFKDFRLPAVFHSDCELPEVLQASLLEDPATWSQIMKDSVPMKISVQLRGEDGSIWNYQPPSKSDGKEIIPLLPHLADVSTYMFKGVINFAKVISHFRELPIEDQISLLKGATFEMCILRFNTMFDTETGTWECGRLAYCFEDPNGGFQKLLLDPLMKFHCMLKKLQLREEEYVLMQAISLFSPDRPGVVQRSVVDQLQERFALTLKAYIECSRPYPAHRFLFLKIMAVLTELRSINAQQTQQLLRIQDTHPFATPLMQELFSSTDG
Inconclusive results are not listed.
Quick list: max activation per entry.
Express it in %; write the number only.

Previously resolved entries follow.
[[record]]
molecule = "C[C@H](CCC(=O)O)[C@H]1CC[C@H]2[C@@H]3[C@H](O)C[C@@H]4C[C@H](O)CC[C@]4(C)[C@H]3CC[C@]12C"
obs_value = -0.524

[[record]]
molecule = "Cn1c(=O)c2c(ncn2CC(O)CO)n(C)c1=O (stereo not given)"
obs_value = -1.09

[[record]]
molecule = "O=C1[C@H](CC[C@H](O)c2ccc(F)cc2)[C@@H](c2ccc(O)cc2)N1c1ccc(F)cc1"
obs_value = -2.85


Annotate the molecule CN(c1nccc(=O)[nH]1)C1CCN(c2nc3ccccc3n2Cc2ccc(F)cc2)CC1 with its measured max activation. -3.1

Annotate the molecule CCN(CCO)CCCC(C)Nc1ccnc2cc(Cl)ccc12 (stereo not given) with its measured max activation. -3.7

====

molecular target: Cytochrome P450 2D6 (Homo sapiens) (UniProt P10635); assay: Cytochrome P450 Family 2 Subfamily D Member 6 (CYP2D6) small molecule antagonists: luciferase reporter qHTS assay (AID 1671196); conditions: P450-Glo CYP2D6 enzyme assay, luciferin luminescence, 1 h; series mostly up to 115 µM; note: nearly all actives have a fitted effect of over 50% in size; note: potency is the fitted concentration of half-maximal effect
Sequence (P10635 whole entry, looked up): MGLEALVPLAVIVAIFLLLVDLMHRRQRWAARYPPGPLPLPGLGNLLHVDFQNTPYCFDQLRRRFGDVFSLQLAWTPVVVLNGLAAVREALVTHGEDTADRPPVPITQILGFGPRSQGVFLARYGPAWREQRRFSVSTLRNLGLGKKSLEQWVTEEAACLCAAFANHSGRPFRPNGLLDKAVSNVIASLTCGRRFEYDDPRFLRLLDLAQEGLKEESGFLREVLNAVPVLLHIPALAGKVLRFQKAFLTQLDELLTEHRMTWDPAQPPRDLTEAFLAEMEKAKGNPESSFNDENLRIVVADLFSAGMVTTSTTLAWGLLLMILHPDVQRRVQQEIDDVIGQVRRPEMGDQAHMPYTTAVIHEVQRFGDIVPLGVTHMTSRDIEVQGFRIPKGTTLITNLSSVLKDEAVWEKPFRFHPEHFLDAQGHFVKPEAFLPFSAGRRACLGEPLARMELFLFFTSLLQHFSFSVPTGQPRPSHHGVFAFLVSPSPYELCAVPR
Records with an inconclusive call do not appear. Activity calls are given as the source filed them. The call rests on the fitted dose curve; in most records, active means well fitted inhibition curve with a large enough effect in the repeat runs; inconclusive means weak or mixed curves; inactive means no such curve, though single readings can be large or run the other way.
value-kind: Potency

[[record]]
compound = "O=[N+]([O-])c1cc[n+]([O-])cc1"
value_kind = "Potency"
obs_value = "35.6 µM (active)"

[[record]]
compound = "O=C1[C@H](CC[C@H](O)c2ccc(F)cc2)[C@@H](c2ccc(O)cc2)N1c1ccc(F)cc1"
value_kind = "Potency"
obs_value = "30.9 µM (active)"

[[record]]
compound = "CC/C(=C\\C(=N/O)C(N)=O)C(C)[N+](=O)[O-] (stereo not drawn)"
value_kind = "Potency"
obs_value = "inactive"

[[record]]
compound = "COc1ccc(OC)c(OC)c1"
value_kind = "Potency"
obs_value = "inactive"


Annotate the compound CC1CCc2cc(F)cc3c(=O)c(C(=O)O)cn1c23 (stereo not drawn) with its measured Potency. inactive

Annotate the compound C=CCCCCCC with its measured Potency. inactive

Annotate the compound O=C=NC1CCC(CC2CCC(N=C=O)CC2)CC1 (stereo not drawn) with its measured Potency. 35.6 µM (active)

====

assay: qHTS assay to identify small molecule antagonists of the estrogen related receptor signaling pathway with the pleiotropic PPARgamma coactivator (PGC) from Tox21 10K library (AID 1224841); settings: PGC/ERR reporter cell line, ONE-Glo luciferase, 18 h; series mostly up to 92.4 µM; note: actives are mostly falling curves and most rising ones were filed inactive; nearly all actives have a fitted effect of over 50% in size; note: potency is the fitted concentration of half-maximal effect
Inconclusive results are not listed. Active and inactive are the calls of the source. No rule for the calls is given here.
value-kind: Potency

[[record]]
compound = "NC(N)=NN=C(/C=C/c1ccc([N+](=O)[O-])o1)/C=C/c1ccc([N+](=O)[O-])o1"
obs_value = "6.68 µM (active)"

[[record]]
compound = "CN1CCC(=C2c3ccccc3C=Cc3ccccc32)CC1"
obs_value = "inactive"

[[record]]
compound = "C[C@H](CCC(=O)O)[C@H]1CC[C@H]2[C@@H]3[C@H](O)C[C@@H]4C[C@H](O)CC[C@]4(C)[C@H]3CC[C@]12C"
obs_value = "inactive"

[[record]]
compound = "CC(=O)CC(=O)c1ccccc1"
obs_value = "inactive"

[[record]]
compound = "Cn1sccc1=O"
obs_value = "inactive"

[[record]]
compound = "N[C@H]1C(O)O[C@H](CO)[C@H](O)[C@@H]1O (some centres not stated)"
obs_value = "inactive"

[[record]]
compound = "Cc1cc(CC(=O)O)c(C)n1-c1ccc(Cl)cc1"
obs_value = "inactive"

[[record]]
compound = "Cc1cccc(Oc2ccccc2)c1"
obs_value = "53.1 µM (active)"


Annotate the compound CCCCOC(=O)/C=C\C(=O)OCCCC with its measured Potency. inactive

Annotate the compound O=C(O)C1CCC(C(=O)O)CC1 (configuration not stated) with its measured Potency. inactive

Annotate the compound OC(CCN1CCCCC1)(c1ccccc1)C1CCCCC1 (configuration not stated) with its measured Potency. inactive

Annotate the compound Nc1nc(N)c(-c2ccccc2)s1 with its measured Potency. inactive

====

experiment: qHTS assay to identify small molecule agonists of the estrogen related receptor (ERR) signaling pathway (AID 1224820); settings: ERR reporter cell line, luciferase agonist mode; series mostly up to 46.1 µM; note: % is set by controls: 0 for no effect and ±100 for the full control effect
Inconclusive results are not listed. The source made the active and inactive calls. Calls follow the shape of the dose curve; as a rule, active = well fitted activation curve with a large enough effect in the repeat runs; inconclusive = weak or mixed curves; inactive = no such curve, though single readings can be large or run the other way.
value-kind: outcome

Previously resolved entries follow.
[[record]]
molecule = "NC(N)=N/N=C/c1c(Cl)cccc1Cl"
value_kind = "outcome"
obs_value = "inactive"

[[record]]
molecule = "CN1CCC(=C2c3ccccc3C=Cc3ccccc32)CC1"
value_kind = "outcome"
obs_value = "inactive"

[[record]]
molecule = "C=Cc1c(C)c2cc3[nH]c(cc4nc(cc5nc(cc1[nH]2)C(C)=C5CCC(=O)O)C(CCC(=O)O)=C4C)c(C)c3C=C"
value_kind = "outcome"
obs_value = "inactive"

[[record]]
molecule = "COc1ccc([C@@H]2Sc3ccccc3N(CCN(C)C)C(=O)[C@@H]2OC(C)=O)cc1"
value_kind = "outcome"
obs_value = "inactive"


Proceed to the following item.
Annotate the molecule CC(C)NCC(O)c1cc(O)cc(O)c1 (stereo not given) with its measured outcome. inactive

====

test: qHTS assay to identify aromatase inhibitors - cell viability counter screen (AID 743084); details: MCF-7 aro ERE viability, CellTiter-Fluor, 24 h; series mostly up to 70.3 µM;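 note: cells stimulated with testosterone during compound exposure; % is set by controls: 0 for no effect and ±100 for the full control effect; nearly all actives have a fitted effect of over 55% in size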
Records with an inconclusive call do not appear. Activity calls are given as the source filed them. The call rests on the fitted dose curve; in most records, active means well fitted cell-killing curve with a large enough effect in the repeat runs; inconclusive means weak or mixed curves, or effect the other way; inactive means no such curve, though single readings can be large or run the other way.
Your reply should match one of these outcome classes. active, inactive

The examples below pair each entry with its known result.
[[record]]
compound = "Oc1ccc2c(c1)OCO2"
class_assignment = "inactive"

[[record]]
compound = "O=c1[nH]cnc2ccccc12"
class_assignment = "inactive"

[[record]]
compound = "Oc1ccc(O)c2c(O)cccc12"
class_assignment = "inactive"

[[record]]
compound = "O=C(O)C1CCC(C(=O)O)CC1 (stereo unspecified)"
class_assignment = "inactive"

[[record]]
compound = "Cc1c(Cn2ccnc2)c2ccccc2n1CCC(=O)O"
class_assignment = "inactive"


Write down the call the test reported for this compound. Item: NC1CCN(c2nc3c(cc2F)c(=O)c(C(=O)O)cn3-c2ccc(F)cc2F)C1 (stereo unspecified) inactive

Write down the call the test reported for this compound. Item: CCOc1nc2cccc(C(=O)O)c2n1Cc1ccc(-c2ccccc2-c2nn[nH]n2)cc1 inactive

Write down the call the test reported for this compound. Item: CC(=O)O[C@@H]1C(=O)O[C@@H]2[C@H]1OC(=O)[C@@H]2OC(C)=O inactive
